Reference for the values: ChEMBL document CHEMBL4011598

# PROCEDURE_SUMMARY: Volume of distribution at steady state in dog at 0.25 mg/kg, iv
# Format: ADME, organism-based, Canis lupus familiaris
# SETTINGS: in vivo, read-out: Vdss
READOUT_LABEL: Vd (L/kg)
One number for each entry, in L/kg.

Would you kindly share the measured Vd for "COc1cc(-c2cccc(C(F)(F)F)c2)c(F)cc1-c1nccc2cc(S(=O)(=O)Nc3ccon3)ccc12" ? 0.56

* * *

# TESTED_SYSTEM: PXR (NR1I2) (Homo sapiens, UniProt O75469)
# Sequence (O75469 whole entry): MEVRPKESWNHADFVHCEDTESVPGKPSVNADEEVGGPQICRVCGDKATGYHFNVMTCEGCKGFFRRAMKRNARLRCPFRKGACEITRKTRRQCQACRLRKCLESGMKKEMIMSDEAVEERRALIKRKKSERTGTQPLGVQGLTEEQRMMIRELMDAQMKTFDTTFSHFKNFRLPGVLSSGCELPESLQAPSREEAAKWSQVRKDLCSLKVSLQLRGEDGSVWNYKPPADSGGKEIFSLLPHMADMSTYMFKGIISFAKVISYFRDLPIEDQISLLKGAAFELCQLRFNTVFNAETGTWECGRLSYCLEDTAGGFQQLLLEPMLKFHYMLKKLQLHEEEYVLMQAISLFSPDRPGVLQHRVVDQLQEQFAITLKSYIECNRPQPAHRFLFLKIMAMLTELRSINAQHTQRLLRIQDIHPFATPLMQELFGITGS
# PROCEDURE_SUMMARY: Activation of human PXR at 10 uM in presence of rifampicin
# Type: ADME
# SETTINGS: read-out: Activity
Give measured activity at 10 µM for each item. Keep answers brief.
One number for each entry, in %.

Recorded results for 10 compounds are shown here.
COc1cc(-c2cc(F)cc(F)c2)ccc1-c1nccc2cc(S(=O)(=O)Nc3ccon3)ccc12; 38
COc1cc(-c2cccc(F)c2)c(Cl)cc1-c1nccc2cc(S(=O)(=O)Nc3ncon3)ccc12; 10
COc1cc(-c2cccc(F)c2)c(Cl)cc1-c1nccc2cc(S(=O)(=O)Nc3ccon3)ccc12; 68
COc1cc(-c2cccc(F)c2)c(Cl)cc1-c1nccc2cc(S(=O)(=O)Nc3ccncn3)ccc12; 24
COc1cc(-c2ccc(C(F)(F)F)cc2)c(F)cc1-c1nccc2cc(S(=O)(=O)Nc3ccon3)ccc12; 0
COc1cc(-c2cccc(F)c2)c(Cl)cc1-c1nccc2cc(S(=O)(=O)Nc3ncccn3)ccc12; 31
COc1cc(-c2cccc(C(F)(F)F)c2)c(F)cc1-c1nccc2cc(S(=O)(=O)Nc3ccon3)ccc12; 1
COc1cc(-c2ccc(Cl)c(C)c2)c(F)cc1-c1nccc2cc(S(=O)(=O)Nc3ccon3)ccc12; 1
COc1cc(-c2cccc(C(F)(F)F)c2)ccc1-c1nccc2cc(S(=O)(=O)Nc3ccon3)ccc12; 7
COc1cc(-c2cccc(F)c2)c(Cl)cc1-c1ncc(O)c2cc(S(=O)(=O)Nc3ccon3)ccc12; 28

Parameter requested: activity at 10 µM. Apply to each item below.
1. COc1cc(-c2cccc(Cl)c2)c(F)cc1-c1nccc2cc(S(=O)(=O)Nc3ccon3)ccc12
2. COc1cc(-c2cc(F)cc(F)c2)c(C#N)cc1-c1nccc2cc(S(=O)(=O)Nc3ccon3)ccc12

34
54

Parameter requested: activity at 10 µM. Apply to each item below.
1. COc1cc(-c2cccc(F)c2)c(Cl)cc1-c1nccc2cc(S(=O)(=O)Nc3ncco3)ccc12
2. COc1cc(-c2cccc(F)c2)c(Cl)cc1-c1nn(C)c(=O)c2cc(S(=O)(=O)Nc3ccon3)ccc12
3. COc1cc(-c2cccc(F)c2)c(Cl)cc1-c1ncnc2cc(S(=O)(=O)Nc3ccon3)ccc12
4. COc1cc(-c2cccc(F)c2)c(Cl)cc1-c1nccc2cc(S(=O)(=O)Nc3ncns3)ccc12
5. COc1cc(-c2cccc(F)c2)c(Cl)cc1-c1c(=O)n(C)cc2cc(S(=O)(=O)Nc3ccon3)ccc12

1: 38; 2: 54; 3: 59; 4: 5.9; 5: 69
